system: Candida albicans; assay: Antifungal activity against Candida albicans ATCC 10231; assay type: functional; settings: read-out: MIC
Reported Metric: MIC

>  <Molecule>
O=c1ccc2c3c(cc[n+]2CCBr)c2ccccc2n13

>  <System Name>
Candida albicans

>  <MIC>
> 200 µM

$$$$
>  <Molecule>
O=c1ccc2c3c(cc[n+]2[O-])c2ccccc2n13

>  <System Name>
Candida albicans

>  <MIC>
> 200 µM

$$$$

Lab note: next molecule to report on.
Ask | I am curious: what MIC value has been reported for COc1cc2nccc3c4ccccc4n(c1=O)c23 [5-METHOXYCANTHINONE] ?
Reply | > 200 µM

Recorded values, source ChEMBL document CHEMBL1158823.
